FYI, the data here is from patent US8697683B2.

target-under-test: MGL (Rattus norvegicus, UniProt Q8R431)
Construct: one g rat brain was homogenized
Sequence (Q8R431 whole entry): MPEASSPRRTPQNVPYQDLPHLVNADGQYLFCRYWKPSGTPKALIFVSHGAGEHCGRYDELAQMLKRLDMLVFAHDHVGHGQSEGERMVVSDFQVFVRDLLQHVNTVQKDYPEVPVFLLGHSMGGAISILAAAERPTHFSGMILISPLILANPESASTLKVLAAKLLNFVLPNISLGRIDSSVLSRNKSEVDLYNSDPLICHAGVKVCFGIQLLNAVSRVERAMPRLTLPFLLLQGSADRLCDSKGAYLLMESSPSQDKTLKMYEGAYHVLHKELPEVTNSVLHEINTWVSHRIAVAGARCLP
procedure-details: 2-AG Accumulation Assay (rat brain homogenate)
Format: biochemical
experimental-setup: compound 1 μM, percent of vehicle 2-AG accumulation
observed-property: Rat Brain 2AG % VehCntrl (%) @1 μM
Return type: number; implicit unit %.

Examples from the recorded data:
>>> print(df.to_string())
                               entry_smiles  result_unit  endpoint_value
0  O=C(c1ccc(-c2nc(-c3ccccc3Cl)cs2)cc1)N1CC(N2CCN(C(=O)c3nccs3)CC2)C1            %            1086
1  O=C(c1ccc2c(c1)CCN(S(=O)(=O)c1ccc(C(F)(F)F)cc1)C2)N1CC(N2CCN(C(=O)c3nccs3)CC2)C1            %            1207
2  O=C(c1ccc(OCc2ccc(Cl)s2)cc1)N1CC(N2CCN(C(=O)c3nccs3)CC2)C1            %            1213
3  Cc1cn(-c2ccccc2)c2ccc(C(=O)N3CC(N4CCN(C(=O)c5nccs5)CC4)C3)cc12            %            1008
4  O=C(c1ccc(CNc2cccc(Cl)c2)cc1)N1CC(N2CCN(C(=O)c3nccs3)CC2)C1            %            1013
5  O=C(c1ccc(-c2nc(-c3cccc(C(F)(F)F)c3)cs2)cc1)N1CC(N2CCN(C(=O)c3nccs3)CC2)C1            %            1168
6  O=C(c1nccs1)N1CCN(C2CN(C(=O)c3ccc4c(ccn4-c4ccc(F)cc4)c3F)C2)CC1            %            1428
7  O=C(c1ccc2c(ccn2-c2ncccn2)c1)N1CC(N2CCN(C(=O)c3nccs3)CC2)C1            %            1021

Lookup: So what does the record say about Rat Brain 2AG % VehCntrl (%) @1 μM for Cc1c(C(=O)N2CC(N3CCN(C(=O)c4nccs4)CC3)C2)sc2cc(C(F)(F)F)ccc12 ?
Found: 1092

Lookup: So what does the record say about Rat Brain 2AG % VehCntrl (%) @1 μM for O=C(c1ccc(CSc2cccc(Cl)c2)cc1)N1CC(N2CCN(C(=O)c3nccs3)CC2)C1 ?
Found: 1066

Lookup: So what does the record say about Rat Brain 2AG % VehCntrl (%) @1 μM for O=C(c1ccc2nc(N3CCC(F)(F)CC3)sc2c1)N1CC(N2CCN(C(=O)c3nccs3)CC2)C1 ?
Found: 1035

Lookup: So what does the record say about Rat Brain 2AG % VehCntrl (%) @1 μM for Cn1cc(-c2cccc(C(F)(F)F)c2)c2ccc(C(=O)N3CC(N4CCN(C(=O)c5cscn5)CC4)C3)cc21 ?
Found: 1165

Lookup: So what does the record say about Rat Brain 2AG % VehCntrl (%) @1 μM for O=C(c1ccc(Cc2ccc(C(F)(F)F)cc2)cc1)N1CC(N2CCN(C(=O)c3nccs3)CC2)C1 ?
Found: 1116

Lookup: So what does the record say about Rat Brain 2AG % VehCntrl (%) @1 μM for O=C(c1nccs1)N1CCN(C2CN(C(=O)c3ccc(-c4cccc(C(F)(F)F)c4)cc3Cl)C2)CC1 ?
Found: 1011

Lookup: So what does the record say about Rat Brain 2AG % VehCntrl (%) @1 μM for Cc1cc(-c2cccc(C(F)(F)F)c2)ccc1C(=O)N1CC(N2CCN(C(=O)c3nccs3)CC2)C1 ?
Found: 1097

Lookup: So what does the record say about Rat Brain 2AG % VehCntrl (%) @1 μM for O=C(c1ccc2c(ccn2-c2ccc(F)cc2)c1)N1CC(N2CCN(C(=O)c3cscn3)CC2)C1 ?
Found: 1183

Lookup: So what does the record say about Rat Brain 2AG % VehCntrl (%) @1 μM for O=C(c1ccc2c(c1)CCCN2Cc1ccc(C(F)(F)F)cc1)N1CC(N2CCN(C(=O)c3nccs3)CC2)C1 ?
Found: 1138
